# target-desc: HLA-DR (DRA1*01:01 / DRB1*13:01), soluble knob-into-hole Fc heterodimer (human)
# method-description: ELISA

{"binder": "KPVSKMRMATPLLMQALPM [human CLIP peptide, unlabelled competitor]", "Ki": "350 nM"}
